Quick note: these are log10(IC50) numbers for system: Kappa-type opioid receptor (Cavia porcellus)
Sequence (P41144 whole entry): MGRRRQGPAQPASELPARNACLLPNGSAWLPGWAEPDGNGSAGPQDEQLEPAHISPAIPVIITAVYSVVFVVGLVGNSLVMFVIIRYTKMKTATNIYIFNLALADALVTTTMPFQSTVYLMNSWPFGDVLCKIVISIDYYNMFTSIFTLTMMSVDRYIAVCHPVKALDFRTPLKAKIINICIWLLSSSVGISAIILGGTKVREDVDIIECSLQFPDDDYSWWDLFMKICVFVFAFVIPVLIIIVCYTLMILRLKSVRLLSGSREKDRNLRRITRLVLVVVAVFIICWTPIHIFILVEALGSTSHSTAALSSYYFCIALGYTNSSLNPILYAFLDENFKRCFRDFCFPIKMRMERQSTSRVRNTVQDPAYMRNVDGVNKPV
The base-10 logarithm of IC50, taken with IC50 in nM, is what appears here.

The following compounds have reported results that may help.
# sample_smiles, data_value
records = [
    ("CC[C@H](C)[C@H](NC(=O)CNC(=O)[C@@H](N)Cc1ccc(O)cc1)C(=O)N[C@@H](Cc1ccccc1)C(=O)N[C@@H](CC(C)C)C(=O)N[C@@H](CCCN=C(N)N)C(=O)N[C@@H](CCCN=C(N)N)C(=O)N[C@H](C(=O)N[C@@H](CCCN=C(N)N)C(=O)N1CCC[C@H]1C(=O)N[C@@H](CCCCN)C(N)=O)[C@@H](C)CC", 1.60),
    ("CC[C@@H](C)[C@@H](NC(=O)CNC(=O)[C@@H](N)Cc1ccc(O)cc1)C(=O)N[C@@H](Cc1ccccc1)C(=O)N[C@@H](CC(C)C)C(=O)N[C@@H](CCCN=C(N)N)C(=O)N[C@@H](CCCN=C(N)N)C(=O)N[C@H](C(=O)N[C@@H](CCCN=C(N)N)C(=O)N1CCC[C@H]1C(=O)N[C@@H](CCCCN)C(N)=O)[C@@H](C)CC", 1.74),
    ("CC[C@H](C)[C@H](NC(=O)[C@H](CCCN=C(N)N)NC(=O)[C@H](CCCN=C(N)N)NC(=O)[C@H](CC(C)C)NC(=O)[C@H](Cc1ccccc1)NC(=O)[C@H](Cc1ccccc1)NC(=O)CNC(=O)[C@@H](N)Cc1ccc(O)cc1)C(=O)N[C@@H](CCCN=C(N)N)C(=O)N1CCC[C@H]1C(=O)N[C@@H](CCCCN)C(N)=O", -0.05),
    ("CC[C@H](C)[C@H](NC(=O)[C@H](CCCN=C(N)N)NC(=O)[C@H](CCCN=C(N)N)NC(=O)[C@H](CC(C)C)NC(=O)[C@H](Cc1ccccc1)NC(=O)[C@H](CCC(=O)O)NC(=O)CNC(=O)[C@@H](N)Cc1ccc(O)cc1)C(=O)N[C@@H](CCCN=C(N)N)C(=O)N1CCC[C@H]1C(=O)N[C@@H](CCCCN)C(N)=O", 2.18),
]

Param item = CC[C@H](C)[C@H](NC(=O)[C@H](CCCN=C(N)N)NC(=O)[C@H](CCCN=C(N)N)NC(=O)[C@H](CC(C)C)NC(=O)[C@H](Cc1ccccc1)NC(=O)[C@@H](NC(=O)CNC(=O)[C@@H](N)Cc1ccc(O)cc1)[C@@H](C)c1ccccc1)C(=O)N[C@@H](CCCN=C(N)N)C(=O)N1CCC[C@H]1C(=O)N[C@@H](CCCCN)C(N)=O ; retrieve measured log10(IC50).
2.08

###

- Test system: Opioid receptors delta & kappa (Cavia porcellus)
- procedure_details: Selectivity ratio between delta and kappa opioid receptor from guinea pig brain homogenate
test_readout: Ratio
Lab note: jot the number down without any unit.

Look up Ratio for this compound: CC[C@H](C)[C@H](NC(=O)[C@H](CCCN=C(N)N)NC(=O)[C@H](CCCN=C(N)N)NC(=O)[C@H](CC(C)C)NC(=O)[C@H](Cc1ccccc1)NC(=O)[C@@H](CCC(=O)O)NC(=O)CNC(=O)[C@@H](N)Cc1ccc(O)cc1)C(=O)N[C@@H](CCCN=C(N)N)C(=O)N1CCC[C@H]1C(=O)N[C@@H](CCCCN)C(N)=O
12

Attribution: ChEMBL document CHEMBL1129348
